Ref: patent US20210380703A1

# Target Desc: T1, human ACVR2A (human, UniProt P27037 20-135, limits assumed); further: test concentration or dose not given here
# T1 construct: also called activin receptor, type II A
# T1 sequence (P27037 20-135 limits assumed): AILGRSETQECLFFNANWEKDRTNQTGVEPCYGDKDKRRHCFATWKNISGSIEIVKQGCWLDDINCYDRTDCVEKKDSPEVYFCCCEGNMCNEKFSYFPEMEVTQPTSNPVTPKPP
# Method Notes: ELISA
Below: a set of entries, each annotated with reported optical density.
State just the number; it will be interpreted in OD.

Ask | Fill in the blank: the reported optical density of 367_H04 (antibody, V domains shown, VH and VL only) VH: EVQLLESGGGLVQPGGSLRLSCAASGFTFSSYSMNWVRQAPGKGLEWVSSINYNGGYTSYADSVKGRFTISRDNSKNTLYLQMNSLRAEDTAVYYCARSATWHDTHLDYWGQGTLVTVSS VL: DIQMTQSPSSLSASVGDRVTITCRASQSILTYVNWYQQKPGKAPKLLIYAATSRHSGVPSRFSGSGSGTDFTLTISSLQPEDFATYYCQQSDNNPLTFGGGTKVEIK is ____.
Reply | 1.62

Ask | Queued: 373_E08 (antibody, V domains shown, VH and VL only) VH: EVQLLESGGGLVQPGGSLRLSCAASGFTFDSYGMNWVRQAPGKGLEWVSGINYNSGYTSYADSVKGRFTISRDNSKNTLYLQMNSLRAEDTAVYYCARSATWHDTHLDYWGQGTLVTVSS VL: DIQMTQSPSSLSASVGDRVTITCRASQSIVSYVNWYQQKPGKAPKLLIYAVTSRASGVPSRFSGSGSGTDFTLTISSLQPEDFATYYCQQSYESPLTFGGGTKVEIK
Reply | 2.97
